# study_target: human PDE10A (Homo sapiens (Human), UniProt Q9Y233)
# Sequence (Q9Y233 other isoform, or with tags, fused parts or gaps): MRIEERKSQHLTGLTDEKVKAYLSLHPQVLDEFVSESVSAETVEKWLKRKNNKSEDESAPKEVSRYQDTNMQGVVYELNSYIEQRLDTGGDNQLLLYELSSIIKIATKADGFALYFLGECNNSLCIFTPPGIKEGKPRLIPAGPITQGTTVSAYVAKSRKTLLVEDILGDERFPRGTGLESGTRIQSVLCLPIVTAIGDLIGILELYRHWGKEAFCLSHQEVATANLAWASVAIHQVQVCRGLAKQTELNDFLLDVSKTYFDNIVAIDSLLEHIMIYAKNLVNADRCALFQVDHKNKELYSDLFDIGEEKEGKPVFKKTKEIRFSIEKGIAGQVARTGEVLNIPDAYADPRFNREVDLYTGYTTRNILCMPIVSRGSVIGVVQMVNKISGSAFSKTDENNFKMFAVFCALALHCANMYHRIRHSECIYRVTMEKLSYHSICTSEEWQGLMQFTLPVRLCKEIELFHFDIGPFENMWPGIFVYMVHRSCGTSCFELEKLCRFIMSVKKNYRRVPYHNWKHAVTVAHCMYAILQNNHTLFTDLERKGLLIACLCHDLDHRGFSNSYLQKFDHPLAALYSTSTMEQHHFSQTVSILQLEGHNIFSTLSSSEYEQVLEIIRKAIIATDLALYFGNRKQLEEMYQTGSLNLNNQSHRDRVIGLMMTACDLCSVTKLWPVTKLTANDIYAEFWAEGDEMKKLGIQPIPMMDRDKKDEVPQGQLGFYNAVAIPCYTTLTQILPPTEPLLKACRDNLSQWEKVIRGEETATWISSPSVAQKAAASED
Note to self: use 1 (yes) only for IC50 readings below 20 nM; a reading exactly at 20 nM still gets 0 (no).

| compound | study_target | assigned_class |
| --- | --- | --- |
| CC(C)Cn1ncc(NC(=O)c2nc(C3CC3)cnc2Nc2cncnc2)c1C(=O)NCC(C)(C)O | human PDE10A (Homo sapiens (Human), UniProt Q9Y233) | 0 (no) |
| CCCN(C)C(=O)c1c(NC(=O)c2nc(C3CC3)cnc2Nc2cncnc2)cnn1C | human PDE10A (Homo sapiens (Human), UniProt Q9Y233) | 1 (yes) |
| CCN(CC)C(=O)c1c(NC(=O)c2nc(C3CC3)cnc2Nc2cncnc2)cnn1C | human PDE10A (Homo sapiens (Human), UniProt Q9Y233) | 0 (no) |
| Cn1cc(NC(=O)c2nc(C3CC3)cnc2Nc2cncnc2)c(C(=O)NCC(C)(C)O)n1 | human PDE10A (Homo sapiens (Human), UniProt Q9Y233) | 1 (yes) |
| CNC(=O)c1nn(C)cc1NC(=O)c1nc(C(C)C)ncc1Nc1cncnc1 | human PDE10A (Homo sapiens (Human), UniProt Q9Y233) | 1 (yes) |
| CN(C)C(=O)c1c(F)cccc1NC(=O)c1nc(C2CC2)cnc1Nc1cncnc1 | human PDE10A (Homo sapiens (Human), UniProt Q9Y233) | 1 (yes) |
| CN(C)C(=O)c1ccncc1NC(=O)c1nc(C2CC2)ccc1Nc1cncnc1 | human PDE10A (Homo sapiens (Human), UniProt Q9Y233) | 0 (no) |
| CCCCN(C)C(=O)c1c(NC(=O)c2nc(C3CC3)cnc2Nc2cncnc2)cnn1C | human PDE10A (Homo sapiens (Human), UniProt Q9Y233) | 1 (yes) |
| CC(C)(O)CNC(=O)c1c(NC(=O)c2nc(C3CC3)cnc2Nc2cncnc2)cnn1CC(F)(F)F | human PDE10A (Homo sapiens (Human), UniProt Q9Y233) | 0 (no) |
| Cc1ccc(NC(=O)c2nc(C3CC3)cnc2Nc2cncnc2)c(C(=O)N(C)C)n1 | human PDE10A (Homo sapiens (Human), UniProt Q9Y233) | 1 (yes) |
| CC1CCC(C)N1C(=O)c1nn(C)cc1NC(=O)c1nc(C2CC2)ccc1Nc1cncnc1 (centres unmarked) | human PDE10A (Homo sapiens (Human), UniProt Q9Y233) | 0 (no) |
| CON(C)C(=O)c1c(NC(=O)c2nc(C3CC3)cnc2Nc2cncnc2)cnn1C | human PDE10A (Homo sapiens (Human), UniProt Q9Y233) | 1 (yes) |
| CNC(=O)c1nc(C2CC2)ccc1NC(=O)c1nc(C2CC2)cnc1Nc1cncnc1 | human PDE10A (Homo sapiens (Human), UniProt Q9Y233) | 1 (yes) |
| CNC(=O)c1c(NC(=O)c2nc(C3CC3)cnc2Nc2cncnc2)cccc1OC | human PDE10A (Homo sapiens (Human), UniProt Q9Y233) | 1 (yes) |
